Below, each entry is listed with its recorded MIC.
# Tested on: Salmonella enterica subsp. enterica typhimurium
# assay details: MIC, 20-strain panel
# Assay type: cell-based
# study conditions: F: Salmonella enterica subsp. enterica Typhimurium

smiles code | MIC
O=C1CCCN1c1ccc(CN2CC[C@@H](NS(=O)(=O)c3cccc(OC(F)(F)F)c3)C2)cc1 | > 8 µg/mL
O=S(=O)(N[C@@H]1CCN(Cc2ccc(-c3nccs3)cc2)C1)c1cccc(OC(F)(F)F)c1 | > 8 µg/mL
COc1ccccc1-c1ccc(CN2CC[C@@H](NS(=O)(=O)c3cccc(C#N)c3)C2)cc1 | > 8 µg/mL
CSc1ccc(CN2CC[C@@H](NS(=O)(=O)c3cccc(C(F)(F)F)c3)C2)cc1 | > 8 µg/mL
COc1ccc(-c2ccc(CN3CC[C@@H](NS(=O)(=O)c4cccc(C#N)c4)C3)cc2)cc1 | > 8 µg/mL
O=S(=O)(N[C@@H]1CCN(Cc2ccc(SC(F)(F)F)cc2)C1)c1cccc(OC(F)(F)F)c1 | > 8 µg/mL
Cc1ccc(S(C)(=O)=O)cc1S(=O)(=O)N[C@@H]1CCN(Cc2ccc(OC3CC3)cc2)C1 | > 8 µg/mL
O=S(=O)(N[C@@H]1CCN(Cc2ccc(OCC(F)F)cc2)C1)c1cccc(OC(F)(F)F)c1 | 8 µg/mL
CC(C)Oc1ccc(CN2CC[C@@H](NS(=O)(=O)c3cnc4ccccc4c3)C2)cc1 | > 8 µg/mL
CC(C)Oc1c(Cl)cc(CN2CC[C@@H](NS(=O)(=O)c3cccc(C(F)(F)F)c3)C2)cc1Cl | > 8 µg/mL
CC(C)(C)Oc1ccc(CN2CC[C@@H](NS(=O)(=O)c3cccc(OC(F)(F)F)c3)C2)cc1 | > 8 µg/mL
Cc1c(S(=O)(=O)N[C@@H]2CCN(Cc3ccc(-c4ccccc4)cc3)C2)sc2ccc(Cl)cc12 | > 8 µg/mL
Cc1ccc(C#N)cc1S(=O)(=O)N[C@@H]1CCN(Cc2ccc(-c3ccccc3)cc2)C1 | 1 µg/mL
O=S(=O)(N[C@@H]1CCN(Cc2ccc(OC3CCCC3)cc2)C1)c1cccc(C(F)(F)F)c1 | 8 µg/mL
O=S(=O)(N[C@@H]1CCN(Cc2ccc(OC3CC3)cc2)C1)c1cccnc1 | > 8 µg/mL
CC(C)Oc1ccc(CN2CC[C@@H](NS(=O)(=O)c3cc(S(=O)(=O)c4ccccc4)cs3)C2)cc1 | > 8 µg/mL
CC(=O)c1cccc(S(=O)(=O)N[C@@H]2CCN(Cc3ccc(-c4ccccc4)cc3)C2)c1 | 8 µg/mL
O=S(=O)(N[C@@H]1CCN(Cc2ccc(-c3ccccc3)cc2)C1)c1cccc(C(F)(F)F)c1 | 4 µg/mL
N#Cc1cccc(S(=O)(=O)N[C@@H]2CCN(Cc3ccc(SC(F)(F)F)cc3)C2)c1 | > 8 µg/mL
O=S(=O)(N[C@@H]1CCN(Cc2ccc(SC(F)(F)F)cc2)C1)c1cccc(C(F)(F)F)c1 | > 8 µg/mL
N#Cc1cccc(S(=O)(=O)N[C@@H]2CCN(Cc3ccc(OCC(F)F)cc3)C2)c1 | 8 µg/mL
O=S(=O)(N[C@@H]1CCN(Cc2ccc(-c3ccccc3)cc2)C1)c1cnccc1Cl | > 8 µg/mL
N#Cc1cc(S(=O)(=O)N[C@@H]2CCN(Cc3ccc(-c4ccccc4)cc3)C2)ccc1Cl | > 8 µg/mL
Cc1ccc(C#N)cc1S(=O)(=O)N[C@@H]1CCN(Cc2ccc(OC3CC3)cc2)C1 | 2 µg/mL
O=S(=O)(N[C@@H]1CCN(Cc2ccc(-c3nccs3)cc2)C1)c1cccc(C(F)(F)F)c1 | > 8 µg/mL
CSc1ccc(CN2CC[C@@H](NS(=O)(=O)c3cccc(C#N)c3)C2)cc1 | > 8 µg/mL
CC(C)Oc1ccc(CN2CC[C@@H](NS(=O)(=O)c3ccc(Cl)c(C#N)c3)C2)cc1 | > 8 µg/mL
CC(=O)c1cc(S(=O)(=O)N[C@@H]2CCN(Cc3ccc(OC(C)C)cc3)C2)ccc1C | > 8 µg/mL
CC(=O)c1cc(S(=O)(=O)N[C@@H]2CCN(Cc3ccc(-c4ccccc4)cc3)C2)ccc1C | > 8 µg/mL
O=S(=O)(N[C@@H]1CCN(Cc2ccc(-c3ccc(Cl)cc3)cc2)C1)c1cccc(C(F)(F)F)c1 | > 8 µg/mL
O=S(=O)(N[C@@H]1CCN(Cc2ccc(-c3ccccc3)cc2)C1)c1cc(C(F)(F)F)ccc1Cl | ~8 µg/mL

====

# target system: E. coli DNA gyrase (Escherichia coli, UniProt P0AES4+P0AES6)
# assay details: DNA gyrase gel shift assay
# study conditions: IC50 against E. coli DNA gyrase, WT Gyrase; Trial 2
pIC50: −log10 of the molar value.

compound | pIC50
N#Cc1cccc(S(=O)(=O)N[C@@H]2CCN(Cc3ccc(-c4ccccc4)cc3)C2)c1 [Gyramide C2, gyramide C2] | 6.92

====

# Tested on: E. coli MG1655
# assay details: MIC, 20-strain panel
# Type: cell-based
# study conditions: Escherichia coli, MG1655, E. coli MG1655; read-out: MIC
observable: MIC

smiles code | observable | result
Cc1ccc(S(=O)(=O)N[C@@H]2CCN(Cc3ccc(OC(C)C)cc3)C2)cc1C#N | MIC | > 8 µg/mL
CS(=O)(=O)c1ccc(Cl)c(S(=O)(=O)N[C@@H]2CCN(Cc3ccc(OC4CC4)cc3)C2)c1 | MIC | > 8 µg/mL
Cc1ccncc1S(=O)(=O)N[C@@H]1CCN(Cc2ccc(OC3CC3)cc2)C1 | MIC | > 8 µg/mL
O=S(=O)(N[C@@H]1CCN(Cc2cn(-c3ccccc3)nn2)C1)c1cccc(OC(F)(F)F)c1 | MIC | > 8 µg/mL

====

# Tested on: Salmonella enterica subsp. enterica typhimurium
# assay details: MIC, 20-strain panel
# Format: cell-based
# study conditions: F: Salmonella enterica subsp. enterica Typhimurium
Below, each entry is listed with its recorded MIC.

molecule | MIC
CC(C)Oc1ccc(CN2CC[C@@H](NS(=O)(=O)c3cc(C#N)ccc3Cl)C2)cc1 [Compound 10] | 8 µg/mL
COc1ccc(-c2ccc(CN3CC[C@@H](NS(=O)(=O)c4cccc(OC(F)(F)F)c4)C3)cc2)cc1 [Compound 74] | > 8 µg/mL
O=S(=O)(N[C@@H]1CCN(Cc2ccn(-c3ccccc3)n2)C1)c1cccc(C(F)(F)F)c1 [Compound 125] | > 8 µg/mL
CC(C)(C)Oc1ccc(CN2CC[C@@H](NS(=O)(=O)c3cccc(C(F)(F)F)c3)C2)cc1 [Compound 23] | > 8 µg/mL
N#Cc1cccc(S(=O)(=O)N[C@@H]2CCN(Cc3cn(-c4ccccc4)nn3)C2)c1 [Compound 124] | > 8 µg/mL
O=S(=O)(N[C@@H]1CCN(Cc2ccc(-c3ccccc3)cc2)C1)c1cnc2ccsc2c1 [Compound 111] | > 8 µg/mL
O=S(=O)(N[C@@H]1CCN(Cc2ccc(OC3CCCC3)cc2)C1)c1cccc(OC(F)(F)F)c1 [Compound 45] | > 8 µg/mL
O=S(=O)(N[C@@H]1CCN(Cc2ccc(-n3ccnn3)cc2)C1)c1cccc(OC(F)(F)F)c1 [Compound 33] | > 8 µg/mL
N#Cc1cccc(S(=O)(=O)N[C@@H]2CCN(Cc3ccc(OC4CCCC4)cc3)C2)c1 [Compound 40] | 4 µg/mL
N#Cc1cc(S(=O)(=O)N[C@@H]2CCN(Cc3ccc(-c4ccccc4)cc3)C2)ccc1F [Compound 19] | 4 µg/mL
O=S(=O)(N[C@@H]1CCN(Cc2ccc(-c3cncnc3)cc2)C1)c1cccc(C(F)(F)F)c1 [Compound 58] | > 8 µg/mL
O=S(=O)(N[C@@H]1CCN(Cc2ccc(-c3ccccn3)cc2)C1)c1cccc(OC(F)(F)F)c1 [Compound 48] | > 8 µg/mL
O=S(=O)(N[C@@H]1CCN(Cc2ccc(-c3ccccc3)cc2)C1)c1cccc2cccnc12 [Compound 105] | 8 µg/mL
N#Cc1cccc(S(=O)(=O)N[C@@H]2CCN(Cc3ccc(-c4ccccn4)cc3)C2)c1 [Compound 46] | 8 µg/mL
N#Cc1cc(S(=O)(=O)N[C@@H]2CCN(Cc3ccc(OC4CC4)cc3)C2)ccc1Cl [Compound 119] | > 8 µg/mL
N#Cc1cccc(S(=O)(=O)N[C@@H]2CCN(Cc3nc(-c4ccccc4)cs3)C2)c1 [Compound 34] | > 8 µg/mL

====

# System: Salmonella enterica subsp. enterica typhimurium
# assay details: MIC, 20-strain panel
# Assay type: cell-based
# study conditions: F: Salmonella enterica subsp. enterica Typhimurium

smiles code | MIC
N#Cc1cccc(S(=O)(=O)N[C@@H]2CCN(Cc3ccc(-c4ccncc4)cc3)C2)c1 | > 8 µg/mL
O=S(=O)(N[C@@H]1CCN(Cc2ccc(-c3cccc(Cl)c3)cc2)C1)c1cccc(C(F)(F)F)c1 | > 8 µg/mL
Cc1ccc(S(C)(=O)=O)cc1S(=O)(=O)N[C@@H]1CCN(Cc2ccc(OC(C)C)cc2)C1 | > 8 µg/mL
N#Cc1ccc(Cl)c(S(=O)(=O)N[C@@H]2CCN(Cc3ccc(-c4ccccc4)cc3)C2)c1 | 4 µg/mL
